Target: GST-Nv-NF-kB (Ser allele) (Nematostella vectensis, UniProt A7UNT2 2-411)
Sequence: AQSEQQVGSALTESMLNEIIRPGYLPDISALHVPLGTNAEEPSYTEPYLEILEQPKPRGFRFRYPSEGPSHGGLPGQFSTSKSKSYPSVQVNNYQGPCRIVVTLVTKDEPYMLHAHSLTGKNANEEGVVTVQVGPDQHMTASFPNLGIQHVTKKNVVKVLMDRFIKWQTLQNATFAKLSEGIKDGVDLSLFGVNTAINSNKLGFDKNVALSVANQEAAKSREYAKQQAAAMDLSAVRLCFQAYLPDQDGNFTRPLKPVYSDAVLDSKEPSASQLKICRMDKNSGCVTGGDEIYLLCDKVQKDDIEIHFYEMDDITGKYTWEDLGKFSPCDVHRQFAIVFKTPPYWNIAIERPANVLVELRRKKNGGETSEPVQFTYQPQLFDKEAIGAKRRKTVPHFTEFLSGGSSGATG
Test: protein-binding microarray (PBM); PBM: ~300 nM protein, 6 mM HEPES pH 7.8, 80 mM KCl, 0.5 mM EDTA, 0.5 mM EGTA, 6% glycerol, 35 ng/ul poly-dIdC, 1% milk, 1 h, room temperature; Ap Aiptasia and Nv Nematostella (sea anemones) / Co Capsaspora / Aq Amphimedon (sponge) / Dm Drosophila / Hu human; RHD is the Rel homology domain; high values mean tight binding
Conditions: dsDNA, one strand shown
quantity-name: binding signal (z-score)
Lab book: enter the figure in z-score, no units written.

The sequence `CCGATTAACATCAAGGGGGGTGGTGATGTTAATCGGGTCTTGATTCGCTTGACGCTGCTG` showed binding signal equal to 4.43

Sample `CCGATTAACATCACTGGGAAAACTGATGTTAATCGGGTCTTGATTCGCTTGACGCTGCTG` ; binding signal observed: 3.57

Summary for this sequence, `CCGATTAACATCAGGGCAGCCCCTGATGTTAATCGGGTCTTGATTCGCTTGACGCTGCTG` : binding signal is 2.79

sequence `CCGATTAACATCACGGGGGGTAATGATGTTAATCGGGTCTTGATTCGCTTGACGCTGCTG` , binding signal observed: 2.9

Documented binding signal of `CCGATTAACATCAGGAATTACCATGATGTTAATCGGGTCTTGATTCGCTTGACGCTGCTG` : 2.03

The sequence listed as `CCGATTAACATCACGGGACCCCCTGATGTTAATCGGGTCTTGATTCGCTTGACGCTGCTG` has a reported binding signal of 3.8

// `CCGATTAACATCAAAACAGCCCCTGATGTTAATCGGGTCTTGATTCGCTTGACGCTGCTG` : binding signal value = 3.68

So for `CCGATTAACATCAGGGAGGGTAATGATGTTAATCGGGTCTTGATTCGCTTGACGCTGCTG` , the logged binding signal turned out to be 2.16

Form field binding signal, entry `CCGATTAACATCAGGGAATTCGATGATGTTAATCGGGTCTTGATTCGCTTGACGCTGCTG` : 4.38

// recorded binding signal for `CCGATTAACATCAAAAAGTTCCCTGATGTTAATCGGGTCTTGATTCGCTTGACGCTGCTG` : 5.17

Entry `CCGATTAACATCAAAAATTCCGGTGATGTTAATCGGGTCTTGATTCGCTTGACGCTGCTG` , binding signal reported as 1.4

Given item `CCGATTAACATCAGAATGCCCCCTGATGTTAATCGGGTCTTGATTCGCTTGACGCTGCTG` , the value recorded as its binding signal is 3.07

get_value(item= `CCGATTAACATCAGGGGGTTCACTGATGTTAATCGGGTCTTGATTCGCTTGACGCTGCTG` , readout=binding signal) returns 4.69

Documented binding signal of `CCGATTAACATCACAGTACCCCCTGATGTTAATCGGGTCTTGATTCGCTTGACGCTGCTG` : 3.98

Form: sequence = `CCGATTAACATCACTAAAATCCCTGATGTTAATCGGGTCTTGATTCGCTTGACGCTGCTG` ; binding signal = 3.42

Form field binding signal, entry `CCGATTAACATCAGGGACAACCCTGATGTTAATCGGGTCTTGATTCGCTTGACGCTGCTG` : 3.39

Per the record, `CCGATTAACATCACCAAAACCCCTGATGTTAATCGGGTCTTGATTCGCTTGACGCTGCTG` has binding signal of 4.14

Record `CCGATTAACATCAAGCATCCCCCTGATGTTAATCGGGTCTTGATTCGCTTGACGCTGCTG` . Reported binding signal: 5.87
